ASSAY REMARKS: Multicenter, open-label, Phase 1a/b study of HC-7366 in subjects with advanced solid tumors (safety, PK)
Type: in vivo
CONDITION NOTES: human, plasma, po, 75 mg, human, multiple once daily oral 75 mg (N = 7), Cycle 1 Day 21, geometric mean
ENDPOINT LABEL: Cmax (ng/mL)
Field: numeric (ng/mL). Do not append units.

Given CNC(=O)c1ncn2cc(-c3c(F)ccc(NS(=O)(=O)c4cc(Cl)cnc4OC)c3F)ncc12 [HC-7366] , state its recorded Cmax.
14300

----------
ASSAY REMARKS: Pharmacokinetics of HC-7366 in male and female beagle dogs following IV and oral administration of HC-7366-K (plasma and urine, LC-MS/MS)
Type: in vivo, Beagle Dog
CONDITION NOTES: dog, plasma; Male Beagle dogs, PO 1 mg/kg, range n = 3; read-out: tmax
From the text: The objective of this study was to characterize the pharmacokinetics of HC-7366 in male and female beagle dogs following intravenous (IV) and oral (PO) administration of the potassium salt of the compound of formula (I), which may be referred to in this Example as HC-7366-K. […] After dosing, blood samples were collected at various time points. Plasma and urine was harvested and analysed by LC-MS/MS to characterize the PK profiles of HC-7366. […]
ENDPOINT LABEL: Tmax

Entry under review: CNC(=O)c1ncn2cc(-c3c(F)ccc(NS(=O)(=O)c4cc(Cl)cnc4OC)c3F)ncc12 . Reported Tmax?
15 to 30 min

----------
ASSAY REMARKS: Pharmacokinetics of HC-7366 in male and female beagle dogs following IV and oral administration of HC-7366-K (plasma and urine, LC-MS/MS)
Type: in vivo, Beagle Dog
CONDITION NOTES: dog; male beagle dogs, intravenous 0.5 mg/kg, plasma HC-7366, mean n=3; read-out: terminal half-life (t1/2) (converted)
ENDPOINT LABEL: half-life (min)
Numeric only. Scale: min

// half-life lookup, key: CNC(=O)c1ncn2cc(-c3c(F)ccc(NS(=O)(=O)c4cc(Cl)cnc4OC)c3F)ncc12
840

----------
ASSAY REMARKS: Multicenter, open-label, Phase 1a/b study of HC-7366 in subjects with advanced solid tumors (safety, PK)
Assay type: in vivo
CONDITION NOTES: human, plasma, po, 40 mg, human, multiple once daily oral 40 mg (N = 8), Cycle 1 Day 21, geometric mean
ENDPOINT LABEL: Cmax (ng/mL)
Supply the numeric figure in ng/mL, leaving out any unit text.

# input compound: CNC(=O)c1ncn2cc(-c3c(F)ccc(NS(=O)(=O)c4cc(Cl)cnc4OC)c3F)ncc12 [HC-7366] ; wanted: its Cmax
7360

----------
ASSAY REMARKS: Multicenter, open-label, Phase 1a/b study of HC-7366 in subjects with advanced solid tumors (safety, PK)
Assay type: in vivo
CONDITION NOTES: human, plasma, po, 75 mg, human, single oral dose 75 mg (N = 10), Cycle 1 Day 1, geometric mean; read-out: AUC0-last
ENDPOINT LABEL: AUC(0-t) (ng·h/mL)
A number alone suffices; assume ng·h/mL.

Which AUC(0-t) is listed for CNC(=O)c1ncn2cc(-c3c(F)ccc(NS(=O)(=O)c4cc(Cl)cnc4OC)c3F)ncc12 ?
100000

----------
ASSAY REMARKS: Pharmacokinetics of HC-7366 in male and female beagle dogs following IV and oral administration of HC-7366-K (plasma and urine, LC-MS/MS)
Type: in vivo, Beagle Dog
CONDITION NOTES: dog; Male Beagle dogs, PO 1 mg/kg, t = 48 h, HC-7366 in plasma, mean n = 3
ENDPOINT LABEL: AUC(0-t) (µg·h/mL)
Give your result in µg·h/mL as a bare value.

Which value of AUC(0-t) has been reported for CNC(=O)c1ncn2cc(-c3c(F)ccc(NS(=O)(=O)c4cc(Cl)cnc4OC)c3F)ncc12 in the records?
116
